Value source: the supplement of paper PMC9170038

# Test system: K4 kissing-loop RNA reporter;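 also: bound reporter read as fluorescence of individual clusters on recovered sequencing chips by microscopy, with normalized cluster intensities fitted with a binding model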
# TEST_SUMMARY: apparent KD of K4 kissing-loop reporter; higher = weaker reporter binding
# SETTINGS: Eterna round: R107; input ligand: none
// reported apparent KD of K4 kissing-loop reporter per item
Provide only the numeric value, understood in nM.

GUCGGCCGCGCGCAAGCGCGGCCGGCCGAUACCAGCGCGCCGGCGCGCCCUUGGCAGCGGCGCCGAGUGAUGUUCGGCCUGACGU [#2 Same State - Theophylline A Attempt #7 (HarryS)] ... 704
AAAGGCAUAGCCCGAGUGAUGUUCGACGAUACCAGCCUCGAUAGAGGCCCUUGGCAGCGUAAAUGAUCAUGAAGCCAAGGAAUAA [whbob_Ex_Theo_A_th68] ... 391
UGUUACCAGUGAUGUUGGGAGAUGAAGAGCAAGGAUAUGUGAUAGUACAGAAGGUGCGUCGUCGUGAUUAUCACGCUCUGUGUUA [theeternabot_exclusion_KL_FMN_A_8] ... 141
GUAGCACUUGAUAGUGAUGUUAUCAAGGGCAAGGAUAUCAUCUCAAUGAGAAGGUGUCCUUGAUAACUGCUACGGGAAUAUCCCA [Omei KL FMN A Exc D v6] ... 96.8
UGAUACCAGACGGCCGCCACUGCACCAGUCAAUGACUGAGUGUGGUAAUGCUCAGUGAUGUUGAGUAGGACCGGGUCUGGUAUCU [Mod of Eli's TrypBX 8 v2] ... 131

Ask: What apparent KD of K4 kissing-loop reporter value was documented for this sequence, GUUUGCCGGUCCCGGAGUGAUGUUCCGGAUACCAGCAACUUCCUUUGCCCUUGGCAGCCGUAGCUAUACCGGGUGGCAGCUUCAG [Anresoenus] ?
Result: 104

Ask: Sample GCGCGUCAUGUCAGCGGUGACACUGUCGAUACCAGCGCCGGAAGGCGCCCUUGGCAGCGACGUGCUGGAGUGAUGUUCCAGCGUC [#2 Exclusion - Theophylline A Attempt #21 (HarryS)] — what was its apparent KD of K4 kissing-loop reporter?
Result: 140

Ask: For CCUUCUCUUGAUAGUGAUGUUAUCGAGGACAAGGAUAUCAUCUCAAUGAGAAGGUGUCCUUGAUAACAUGGAGGUCUGAAACAGA [Omei KL FMN A Exc C v9] , what is its reported apparent KD of K4 kissing-loop reporter?
Result: 439

Ask: Can you look up the measured apparent KD of K4 kissing-loop reporter of CUCGUGGGUUUGAGAGGGCUUGUGGGAAGUGAGGAUAUUUAGGGAGAAAGAAGGCACUAUAAAAUAUAGUGAUGUUAUAUAAGGG [SSFMNA.M] for me?
Result: 188

Ask: // lookup apparent KD of K4 kissing-loop reporter for AUUUAAUUAACUGAUACCAGACUUUAAGUAAUUAUUAAAACUAGUGAUGUUAGUUUAUCUGUCCCUUGGCAGCAGUUUCUACUUA [JR_Nu_ExcTheophyB_Sub020]
Result: 158

Ask: I'd like to know its apparent KD of K4 kissing-loop reporter. The sequence in question is UUUGGUUUCUCGGCCGCCACUCGUUGGUUAUGGGCUUCAGGGAUAUAGUGAUGUUAUGUAUAGAAGAGGACCGGGAGAAGGUUUU [ExTryptoB.Du]
Result: 330
